Ref: patent US20090062258A1

Target: human GnRH receptor (Homo sapiens, UniProt P30968)
Construct: expressed in transfected cells; host or cells: CHO (Chinese Hamster Ovary) cells; membrane fraction
Assay: 125I-leuprorelin binding assay (binding inhibitory rate)
Details: 10 nM of the testing compound; 800 pM 125I-leuprorelin; 10 μg human GnRH receptor membrane fraction (CHO cells); room temperature 1 hour; read-out: Binding inhibitory ratio (%)
As shown below, each of these molecules has a reported inhibition at 0.01 µM value.
# output: bare number, implied unit %

{"columns": ["MOLECULE", "EXPERIMENTAL SYSTEM", "QUANTITY MEASURED", "UNIT SPEC", "READOUT VALUE"],
 "data": [
  ["CC(C)(C)OC(=O)CNC(=O)c1scc2[nH]c(=O)n(-c3cccc(S(=O)(=O)N4CCCc5ccccc54)c3)c(=O)c12 [Example 7 (1)]", "human GnRH receptor (Homo sapiens, UniProt P30968)", "inhibition at 0.01 µM", "%", 92]
]}

Let me know recorded inhibition at 0.01 µM for COC(=O)c1scc2[nH]c(=O)n(-c3cc(C(=O)N(c4cccc(C#N)c4Cl)C4CC4)sc3Cl)c(=O)c12 [Example 38] , thanks.
95

Let me know recorded inhibition at 0.01 µM for CCN(C(=O)c1csc(-n2c(=O)[nH]c3csc(C(=O)O)c3c2=O)c1)c1ccccc1 [Example 33-2] , thanks.
85

Let me know recorded inhibition at 0.01 µM for COC(=O)c1scc2[nH]c(=O)n(-c3cc(S(=O)(=O)N4CCCc5ccccc54)cs3)c(=O)c12 [Example 30] , thanks.
110

Let me know recorded inhibition at 0.01 µM for CNC(=O)c1scc2[nH]c(=O)n(-c3cc(S(=O)(=O)N4CCCc5ccccc54)ccc3Cl)c(=O)c12 [Example 16] , thanks.
96

Let me know recorded inhibition at 0.01 µM for O=c1[nH]c2csc(CO)c2c(=O)n1-c1cc(S(=O)(=O)N2CCCc3ccccc32)cs1 [Example 31] , thanks.
100

Let me know recorded inhibition at 0.01 µM for O=c1[nH]c2ccsc2c(=O)n1-c1cccc(S(=O)(=O)N2CCCc3ccccc32)c1 [Example 1] , thanks.
86

* * *

As shown below, each of these compounds has a reported inhibition at 0.01 µM value.
Target: human GnRH receptor (Homo sapiens)
Construct: expressed in transfected cells; host or cells: CHO (Chinese Hamster Ovary) cells; membrane fraction
Sequence (P30968 1-328): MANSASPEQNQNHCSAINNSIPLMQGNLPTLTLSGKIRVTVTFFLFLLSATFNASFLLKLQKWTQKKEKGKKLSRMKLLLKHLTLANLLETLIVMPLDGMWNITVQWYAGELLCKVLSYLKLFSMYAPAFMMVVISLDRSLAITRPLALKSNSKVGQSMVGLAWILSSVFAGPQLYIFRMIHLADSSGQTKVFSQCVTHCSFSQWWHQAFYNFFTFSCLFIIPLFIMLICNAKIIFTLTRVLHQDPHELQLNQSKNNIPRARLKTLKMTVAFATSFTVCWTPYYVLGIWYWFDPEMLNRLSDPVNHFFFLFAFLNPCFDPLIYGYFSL
Assay: 125I-leuprorelin binding assay (binding inhibitory rate)
Conditions: 10 nM of the testing compound; 800 pM 125I-leuprorelin; 10 μg human GnRH receptor membrane fraction (CHO cells); room temperature 1 hour; read-out: Binding inhibitory ratio (%)
# output: bare number, implied unit %

{"columns": ["COMPOUND", "inhibition at 0.01 µM / %"],
 "data": [
  ["Cc1nnc(-c2scc3[nH]c(=O)n(-c4cccc(S(=O)(=O)N5CCCc6ccccc65)c4)c(=O)c23)o1", 72],
  ["N#Cc1cccc(N(C(=O)c2cc(-n3c(=O)[nH]c4csc(CO)c4c3=O)c(Cl)s2)C2CC2)c1Cl", 101],
  ["N#Cc1cccc(N(C(=O)c2cc(-n3c(=O)[nH]c4csc(C(N)=O)c4c3=O)c(Cl)s2)C2CC2)c1Cl", 100],
  ["COC(=O)c1scc2[nH]c(=O)n(-c3cc(C(=O)N(c4cccc(Br)c4Cl)C4CC4)sc3Cl)c(=O)c12", 100],
  ["N#Cc1cccc(N(C(=O)c2cc(-n3c(=O)[nH]c4csc(C(=O)O)c4c3=O)c(Cl)s2)C2CC2)c1Cl", 101],
  ["O=C(O)c1csc2[nH]c(=O)n(-c3cccc(S(=O)(=O)N4CCCc5ccccc54)c3)c(=O)c12", 100]
]}

Let me know recorded inhibition at 0.01 µM for CC(O)c1scc2[nH]c(=O)n(-c3cccc(S(=O)(=O)N4CCCc5ccccc54)c3)c(=O)c12 (centres unmarked) , thanks.
95

Let me know recorded inhibition at 0.01 µM for O=C(O)c1scc2[nH]c(=O)n(-c3cc(S(=O)(=O)N4CCCCc5sccc54)sc3Cl)c(=O)c12 , thanks.
97
